Sourced from PubChem BioAssay (NCI)

For each record, write down the corresponding GI50.
# Tested on: NCI-H226 lung
# EXPERIMENT_NOTES: NCI tumour cell line growth inhibition, 48 h

Incoming: Lab note: NCI-H226 lung assay, enter GI50 for `CCCCC[C@H]1CC=C2C(=O)C=C[C@@H]2CC=CCCCC(=O)O[C@@H](CCCCC)CC=C2C(=O)C=C[C@@H]2CC=CCCCC(=O)O[C@@H](CCCCC)CC=C2C(=O)C=C[C@@H]2CC=CCCCC(=O)O1` here
Outgoing: 1130 nM

Incoming: With NCI-H226 lung as the test system, provide measured GI50 for this compound: `COc1cc(-c2nn(-c3cccc(NC(=O)NCCNS(=O)(=O)c4ccc(Cl)cc4)c3)cc2-c2ccncc2)ccc1Cl`
Outgoing: 1450 nM

Incoming: Look up and report measured GI50 (NCI-H226 lung) for the following compound: `O=C(O)/C=C/c1ccc[c]([Sb](=[O])([OH])[OH])c1`
Outgoing: > 100000 nM

Incoming: Supply GI50 measured with NCI-H226 lung for `COc1cccc(-n2ncc3c(N/N=C/c4ccc(C)cc4)ncnc32)c1` .
Outgoing: > 25000 nM

Incoming: State GI50 (NCI-H226 lung) of `CCC#CC[C@H](O)C/C=C1/C(=O)C=C[C@@H]1C/C=C\CCCC(=O)OC` .
Outgoing: 863 nM

Incoming: Fill in GI50 for `O=C1Nc2ccccc2/C1=C\c1cccc(/C=C2/C(=O)Nc3ccccc32)n1` tested with NCI-H226 lung.
Outgoing: 1530 nM

Incoming: Provide the reported GI50 (system: NCI-H226 lung) for `COc1ccc(N2C(=O)/C(=C/C(Cl)=C/c3ccc([N+](=O)[O-])cc3)SC2=S)cc1`
Outgoing: 4230 nM

Incoming: Enter measured GI50, system NCI-H226 lung, for the compound shown: CC(=O)O[C@@]12CO[C@@H]1C[C@H](O)[C@@]1(C)C(=O)[C@H](O)C3=C(C)[C@@H](OC(=O)[C@H](O)[C@@H](NC(=O)OC(C)(C)C)c4ccccc4)C[C@@](O)([C@@H](OC(=O)c4ccccc4)C12)C3(C)C (some centres undefined)
Outgoing: 12800 nM

Incoming: # return GI50 of `COc1cc(OC)cc(-c2nc3sccn3c2/C=N/N=C(N)N)c1` (system: NCI-H226 lung)
Outgoing: 6960 nM

* * *

# Test system: SW-620 colon
# EXPERIMENT_NOTES: NCI tumour cell line growth inhibition, 48 h
OBSERVABLE: TGI (µM)
Note: unit µM is implicit; provide only the numeric part.

Incoming: Consider the compound Cc1ccc(NC(=O)C(=O)C(C(=O)c2ccc3ccccc3c2)C2OC(=O)c3ccccc32)c(C)c1 (stereo unspecified) and give its recorded TGI.
Outgoing: 21.6

Incoming: Tell me TGI reported for `CC/C=C\C[C@H](O)C/C=C1/C(=O)C=C[C@@H]1C/C=C\CCCC(=O)OC(C)C`
Outgoing: 2.32

Incoming: Specify reported TGI for the compound shown: `O=C(O)CNc1ccc(Cl)c(Cl)c1`
Outgoing: 73.9

Incoming: Give the value of TGI reported for the following: `CCCCCCCN(CCCCCCC)C(=N)c1ccnc2ccccc12`
Outgoing: 2.91

Incoming: For `CCN(CCCl)CCCCCNc1c2ccccc2nc2ccc(OC)cc12` , write its TGI.
Outgoing: 1.63
